# Assay Explanation: Transport of polyphenols across differentiated Caco-2 monolayers (apical stability, basolateral bioavailability, Papp)
# Condition Description: human, Caco-2
Measurement Kind: recovery at 30 min, 60 μg/mL total polyphenols (%)
# number only, unit % dropped from output

# recovery at 30 min, 60 μg/mL total polyphenols (compound: O=c1c(O)c(-c2ccc(O[C@@H]3O[C@H](CO)[C@@H](O)[C@H](O)[C@H]3O)c(O)c2)oc2cc(O)cc(O)c12 [Spiraeoside, quercetin-4′-O-glucoside] ) is 78

# recovery at 30 min, 60 μg/mL total polyphenols (compound: O=c1c(O)c(-c2ccc(O)c(O)c2)oc2cc(O)cc(O)c12 [Quercetin] ) is 38

* * *

# Assay Explanation: Transport of polyphenols across differentiated Caco-2 monolayers (apical stability, basolateral bioavailability, Papp)
# Condition Description: human, Caco-2
Measurement Kind: bioavailability at 90 min, 30 µg/mL total polyphenols

# bioavailability at 90 min, 30 µg/mL total polyphenols (compound: O=c1c(O)c(-c2ccc(O[C@@H]3O[C@H](CO)[C@@H](O)[C@H](O)[C@H]3O)c(O)c2)oc2cc(O)cc(O)c12 [Spiraeoside, quercetin-4′-O-glucoside] ) is ~8%

# bioavailability at 90 min, 30 µg/mL total polyphenols (compound: O=C(O)c1ccc(O)c(O)c1 ) is 6.8%

* * *

# Assay Explanation: Transport of polyphenols across differentiated Caco-2 monolayers (apical stability, basolateral bioavailability, Papp)
# Condition Description: human, Caco-2
Measurement Kind: Papp A→B at 120 min, 60 µg/mL total polyphenols (×10⁻⁶ cm/s)
# number only, unit ×10⁻⁶ cm/s dropped from output

# Papp A→B at 120 min, 60 µg/mL total polyphenols (molecule: O=c1c(O)c(-c2ccc(O)c(O)c2)oc2cc(O)cc(O)c12 ) is 1.1

* * *

# Assay Explanation: Transport of polyphenols across differentiated Caco-2 monolayers (apical stability, basolateral bioavailability, Papp)
# Condition Description: human, Caco-2
Measurement Kind: bioavailability at 120 min, 30 µg/mL total polyphenols (%)
# number only, unit % dropped from output

# bioavailability at 120 min, 30 µg/mL total polyphenols (compound: O=C(O)c1ccc(O)c(O)c1 ) is 7.7
